System: 156681-154-R-J1-PDC complex spheroid viability
experimentalProtocol: Anticancer human tumor 156681-154-R-J1-PDC patient-derived melanoma cell line growth inhibition [CLK]
condition: second compound 0.0316 µM; first compound 0.3 µM; stronger effect = lower value
Examples of compounds with documented viability, T/C follow.
Your answer is read as %, so omit the unit and give the number.

NC(=O)C(=Cn1cnc(-c2cc(C(F)(F)F)cc(C(F)(F)F)c2)n1)c1cncnc1 + CN1CCN(c2cc(C(=O)Nc3cc4cc(-c5cnn(C)c5)ccc4cn3)ccn2)CC1; 13.1
C=CC(=O)Nc1cc(Nc2nccc(-c3cn(C)c4ccccc34)n2)c(OC)cc1N(C)CCN(C)C + CN1CCN(c2cc(C(=O)Nc3cc4cc(-c5cnn(C)c5)ccc4cn3)ccn2)CC1; 90

Now for the compound whose viability, T/C we want.
// Input: C=CC(=O)Nc1cc(Nc2nccc(-c3cn(C)c4ccccc34)n2)c(OC)cc1N(C)CCN(C)C + CNC(=O)c1ccc(Nc2nc(OC3CCCC3)c3c(-c4ccc5nc(C)oc5c4)c[nH]c3n2)c(OC)c1 . Output its viability, T/C only.
90

----------
Examples of compounds with documented viability, T/C follow.
Test system: 156681-154-R-J1-PDC complex spheroid viability
experimentalProtocol: Anticancer human tumor 156681-154-R-J1-PDC cell line growth inhibition [CLK]
condition: second compound 0.316 µM; first compound 10 µM; stronger effect = lower value
Your answer is read as %, so omit the unit and give the number.

CC1(C)CCC(CN2CCN(c3ccc(C(=O)NS(=O)(=O)c4ccc(NCC5CCOCC5)c([N+](=O)[O-])c4)c(Oc4cnc5[nH]ccc5c4)c3)CC2)=C(c2ccc(Cl)cc2)C1 + CN1CCN(c2cc(C(=O)Nc3cc4cc(-c5cnn(C)c5)ccc4cn3)ccn2)CC1; 0.28

Fill in viability, T/C for COC1C=CCC(C)C(C)S(=O)(=O)NC(=O)c2ccc3c(c2)N(CC2CCC21)CC1(CCCc2cc(Cl)ccc21)CO3 (configuration not stated) + CNC(=O)c1ccc(Nc2nc(OC3CCCC3)c3c(-c4ccc5nc(C)oc5c4)c[nH]c3n2)c(OC)c1 tested with 156681-154-R-J1-PDC complex spheroid viability.
2.16

----------
Examples of molecules with documented viability, T/C follow.
Test system: 156681-154-R-J1-PDC complex spheroid viability
experimentalProtocol: Anticancer human tumor 156681-154-R-J1-PDC cell line growth inhibition [CLK]
condition: second compound 10 µM; first compound 0.03 µM; stronger effect = lower value
Your answer is read as %, so omit the unit and give the number.

Use the examples below as a reference point.
CC(C)CC(NC(=O)C(Cc1ccccc1)NC(=O)c1cnccn1)B(O)O (stereo unspecified) + CNC(=O)c1ccc(Nc2nc(OC3CCCC3)c3c(-c4ccc5nc(C)oc5c4)c[nH]c3n2)c(OC)c1; 0.31
CC(C)CC(NC(=O)C(Cc1ccccc1)NC(=O)c1cnccn1)B(O)O (stereo unspecified) + CN1CCN(c2cc(C(=O)Nc3cc4cc(-c5cnn(C)c5)ccc4cn3)ccn2)CC1; 0.1
C=CC(=O)Nc1cc(Nc2nccc(-c3cn(C)c4ccccc34)n2)c(OC)cc1N(C)CCN(C)C + CNC(=O)c1ccc(Nc2nc(OC3CCCC3)c3c(-c4ccc5nc(C)oc5c4)c[nH]c3n2)c(OC)c1; 43.1
NC(=O)C(=Cn1cnc(-c2cc(C(F)(F)F)cc(C(F)(F)F)c2)n1)c1cncnc1 + CN1CCN(c2cc(C(=O)Nc3cc4cc(-c5cnn(C)c5)ccc4cn3)ccn2)CC1; 1.56
NC(=O)C(=Cn1cnc(-c2cc(C(F)(F)F)cc(C(F)(F)F)c2)n1)c1cncnc1 + CNC(=O)c1ccc(Nc2nc(OC3CCCC3)c3c(-c4ccc5nc(C)oc5c4)c[nH]c3n2)c(OC)c1; 24.2

// Input: C=CC(=O)Nc1cc(Nc2nccc(-c3cn(C)c4ccccc34)n2)c(OC)cc1N(C)CCN(C)C + CN1CCN(c2cc(C(=O)Nc3cc4cc(-c5cnn(C)c5)ccc4cn3)ccn2)CC1 . Output its viability, T/C only.
1.65

----------
Tested on: 156681-154-R-J1-PDC complex spheroid viability
experimentalProtocol: Anticancer human tumor 156681-154-R-J1-PDC cell line growth inhibition [CLK];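 further: spheroids exposed to the agents for seven days; 100% = DMSO vehicle control viability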
condition: second compound 3.16 µM; first compound 0.1 µM; stronger effect = lower value
We label by threshold. Values of viability, T/C strictly beneath 0.8% are True. Values of 0.8% and up are False.

A record lists Cn1ncnc1[C@H]1c2n[nH]c(=O)c3cc(F)cc(c23)N[C@@H]1c1ccc(F)cc1 + CN1CCN(c2cc(C(=O)Nc3cc4cc(-c5cnn(C)c5)ccc4cn3)ccn2)CC1 . Is its viability, T/C below 0.8%?
True

A record lists COc1cccc2c1C(=O)c1c(O)c3c(c(O)c1C2=O)CC(O)(C(=O)CO)CC3OC1CC(N)C(O)C(C)O1 (stereo not given) + CNC(=O)c1ccc(Nc2nc(OC3CCCC3)c3c(-c4ccc5nc(C)oc5c4)c[nH]c3n2)c(OC)c1 . Is its viability, T/C below 0.8%?
False

A record lists COc1cccc2c1C(=O)c1c(O)c3c(c(O)c1C2=O)CC(O)(C(=O)CO)CC3OC1CC(N)C(O)C(C)O1 (stereo not given) + CN1CCN(c2cc(C(=O)Nc3cc4cc(-c5cnn(C)c5)ccc4cn3)ccn2)CC1 . Is its viability, T/C below 0.8%?
True

A record lists O=C(c1cc(Cc2n[nH]c(=O)c3ccccc23)ccc1F)N1CCN(C(=O)C2CC2)CC1 + CN1CCN(c2cc(C(=O)Nc3cc4cc(-c5cnn(C)c5)ccc4cn3)ccn2)CC1 . Is its viability, T/C below 0.8%?
False

----------
System: 156681-154-R-J1-PDC complex spheroid viability
experimentalProtocol: Anticancer human tumor 156681-154-R-J1-PDC cell line growth inhibition [CLK]; active means viability on the fitted dose curve at most 10% of control; inactive means the rest;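 further: spheroids exposed to the agents for seven days; 100% = DMSO vehicle control viability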
condition: second compound 0.316 µM; first compound 0.316 µM
Allowed answers: 1 = active, -1 = inactive

COc1cccc2c1C(=O)c1c(O)c3c(c(O)c1C2=O)CC(O)(C(=O)CO)CC3OC1CC(N)C(O)C(C)O1 (stereo not drawn) + CN1CCN(c2cc(C(=O)Nc3cc4cc(-c5cnn(C)c5)ccc4cn3)ccn2)CC1; 1

Answer briefly: the call reported for Nc1ccccc1NC(=O)c1ccc(CNC(=O)OCc2cccnc2)cc1 + CNC(=O)c1ccc(Nc2nc(OC3CCCC3)c3c(-c4ccc5nc(C)oc5c4)c[nH]c3n2)c(OC)c1 in this assay.
-1

Answer briefly: the call reported for C=CC(=O)N1CCN(c2nc(=O)n(-c3c(C)ccnc3C(C)C)c3nc(-c4c(O)cccc4F)c(F)cc23)C(C)C1 (stereo not drawn) + CN1CCN(c2cc(C(=O)Nc3cc4cc(-c5cnn(C)c5)ccc4cn3)ccn2)CC1 in this assay.
-1

----------
System: 156681-154-R-J1-PDC complex spheroid viability
experimentalProtocol: Anticancer human tumor 156681-154-R-J1-PDC cell line growth inhibition [CLK];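 further: spheroids exposed to the agents for seven days; 100% = DMSO vehicle control viability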
condition: second compound 0.316 µM; first compound 0.316 µM; stronger effect = lower value
Examples of molecules with documented viability, T/C follow.

C#Cc1c(F)ccc2cc(O)cc(-c3ncc4c(N5CC6CCC(C5)N6)nc(OCC56CCCN5CC(F)C6)nc4c3F)c12 (stereo not given) + CN1CCN(c2cc(C(=O)Nc3cc4cc(-c5cnn(C)c5)ccc4cn3)ccn2)CC1; 25.9%
CC1COCCN1c1cc(C2(S(C)(=N)=O)CC2)nc(-c2ccnc3[nH]ccc23)n1 (stereo not given) + CN1CCN(c2cc(C(=O)Nc3cc4cc(-c5cnn(C)c5)ccc4cn3)ccn2)CC1; 19.3%
O=c1[nH]cc(F)c(=O)[nH]1 + CN1CCN(c2cc(C(=O)Nc3cc4cc(-c5cnn(C)c5)ccc4cn3)ccn2)CC1; 21.1%

// Input: CC(CO)NC(=O)c1cc(-c2ccc(Cl)cc2)nn(-c2cnn(C)c2)c1=O (stereo not given) + CN1CCN(c2cc(C(=O)Nc3cc4cc(-c5cnn(C)c5)ccc4cn3)ccn2)CC1 . Output its viability, T/C only.
34.2%

// Input: C#Cc1c(F)ccc2cc(O)cc(-c3ncc4c(N5CC6CCC(C5)N6)nc(OCC56CCCN5CC(F)C6)nc4c3F)c12 (stereo not given) + CNC(=O)c1ccc(Nc2nc(OC3CCCC3)c3c(-c4ccc5nc(C)oc5c4)c[nH]c3n2)c(OC)c1 . Output its viability, T/C only.
66.4%

----------
System: 156681-154-R-J1-PDC complex spheroid viability
experimentalProtocol: Anticancer human tumor 156681-154-R-J1-PDC cell line growth inhibition [CLK];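 further: spheroids exposed to the agents for seven days; 100% = DMSO vehicle control viability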
condition: second compound 3.16 µM; first compound 0.1 µM; stronger effect = lower value
Examples of compounds with documented viability, T/C follow.

O=C(c1cc(Cc2n[nH]c(=O)c3ccccc23)ccc1F)N1CCN(C(=O)C2CC2)CC1 + CNC(=O)c1ccc(Nc2nc(OC3CCCC3)c3c(-c4ccc5nc(C)oc5c4)c[nH]c3n2)c(OC)c1; 48.2%
C=C(F)C(=O)N1CCN(c2nc(OCC3CCCN3C)nc3c2CCN(c2cccc4cccc(Cl)c24)C3)CC1CC#N (stereo not given) + CNC(=O)c1ccc(Nc2nc(OC3CCCC3)c3c(-c4ccc5nc(C)oc5c4)c[nH]c3n2)c(OC)c1; 33.5%
CC(CO)NC(=O)c1cc(-c2ccc(Cl)cc2)nn(-c2cnn(C)c2)c1=O (stereo not given) + CNC(=O)c1ccc(Nc2nc(OC3CCCC3)c3c(-c4ccc5nc(C)oc5c4)c[nH]c3n2)c(OC)c1; 36.9%

// Input: CCN1CCN(Cc2ccc(Nc3ncc(F)c(-c4cc(F)c5nc(C)n(C(C)C)c5c4)n3)nc2)CC1 + CN1CCN(c2cc(C(=O)Nc3cc4cc(-c5cnn(C)c5)ccc4cn3)ccn2)CC1 . Output its viability, T/C only.
1.66%

// Input: CC(=O)O[C@H]1C(=O)[C@@]2(C)[C@H]([C@H](OC(=O)c3ccccc3)[C@]3(O)C[C@H](OC(=O)[C@H](O)[C@@H](NC(=O)c4ccccc4)c4ccccc4)C(C)=C1C3(C)C)[C@]1(OC(C)=O)CO[C@@H]1C[C@@H]2O + CN1CCN(c2cc(C(=O)Nc3cc4cc(-c5cnn(C)c5)ccc4cn3)ccn2)CC1 . Output its viability, T/C only.
0.74%
